Sourced from ChEMBL document CHEMBL1122389

Experiment: Pseudo-first order rate of beta-lactam cleavage at pH 9.2 and 35 degrees C
Format: ADME
TEST_READOUT: log10 k (log10 of the value in h⁻¹)
Field: value | Transform: log10 | Quantity: k | Unit: h⁻¹

List reported log10 k for each of these molecules:
1. Cn1nnnc1SCC1=C(C(=O)[O-])N2C(=O)[C@@H](NC(=O)C(C(=O)[O-])c3ccc(O)cc3)C2OC1.[Na+].[Na+] (stereo not given in full)
2. CO[C@@]1(NC(=O)Cc2ccc(O)cc2)C(=O)N2C(C(=O)[O-])=C(CSc3nnnn3C)CSC21.[Na+] (stereo not given in full)

Reply:
1. -0.90
2. -1.45

List reported log10 k for each of these molecules:
1. Cn1nnnc1SCC1=C(C(=O)[O-])N2C(=O)[C@@H](NC(=O)C(C(=O)[O-])c3ccc(O)cc3)C2SC1.[Na+].[Na+] (stereo not given in full)
2. Cn1nnnc1SCC1=C(C(=O)[O-])N2C(=O)[C@@H](NC(=O)Cc3ccc(O)cc3)C2SC1.[Na+] (stereo not given in full)

Reply:
1. -1.62
2. -1.64

List reported log10 k for each of these molecules:
1. CO[C@@]1(NC(=O)C(C(=O)[O-])c2ccc(O)cc2)C(=O)N2C(C(=O)[O-])=C(CSc3nnnn3C)CSC21.[Na+].[Na+] (stereo not given in full)
2. Cn1nnnc1SCC1=C(C(=O)[O-])N2C(=O)[C@@H](NC(=O)Cc3ccc(O)cc3)C2OC1.[Na+] (stereo not given in full)
3. COC1(NC(=O)C(C(=O)[O-])c2ccc(O)cc2)C(=O)N2C(C(=O)[O-])=C(CSc3nnnn3C)CCC21.[Na+].[Na+] (stereo not given)
4. CO[C@@]1(NC(=O)C(C(=O)[O-])c2ccc(O)cc2)C(=O)N2C(C(=O)[O-])=C(CSc3nnnn3C)COC21.[Na+].[Na+] (stereo not given in full)
5. CO[C@@]1(NC(=O)Cc2ccc(O)cc2)C(=O)N2C(C(=O)[O-])=C(CSc3nnnn3C)COC21.[Na+] (stereo not given in full)

Reply:
[-1.62, -0.86, -1.16, -0.75, -0.64]

So for Cn1nnnc1SCC1=C(C(=O)[O-])N2C(=O)[C@@](C)(NC(=O)C(C(=O)[O-])c3ccc(O)cc3)C2OC1.[Na+].[Na+] (stereo not given in full) , the logged log10 k turned out to be -1.83

====

System: Escherichia coli
Experiment: Minimum inhibitory concentration (MIC) against Escherichia coli NIHJ JC-2 in agar dilution method
Type: functional
I'd be grateful if you could share measured MIC for these entries.
Answer with the figure and its unit, nothing else.

So for Cn1nnnc1SCC1=C(C(=O)[O-])N2C(=O)[C@@](C)(NC(=O)C(C(=O)[O-])c3ccc(O)cc3)C2OC1.[Na+].[Na+] (some centres undefined) , the logged MIC turned out to be 12.5 µg/mL

So for COC1(NC(=O)C(C(=O)[O-])c2ccc(O)cc2)C(=O)N2C(C(=O)[O-])=C(CSc3nnnn3C)CCC21.[Na+].[Na+] (centres undefined) , the logged MIC turned out to be 6.25 µg/mL

So for CO[C@@]1(NC(=O)C(C(=O)[O-])c2ccc(O)cc2)C(=O)N2C(C(=O)[O-])=C(CSc3nnnn3C)CSC21.[Na+].[Na+] (some centres undefined) , the logged MIC turned out to be 0.78 µg/mL

Moving on to another compound below.
So for CO[C@@]1(NC(=O)C(C(=O)[O-])c2ccc(O)cc2)C(=O)N2C(C(=O)[O-])=C(CSc3nnnn3C)COC21.[Na+].[Na+] (some centres undefined) , the logged MIC turned out to be 0.1 µg/mL
